assay: modulators of CD8 T cell-vesicle binding, confirmation, cherry-picked primary hits, two concentrations (AID 2810); conditions: 2C CD8+ T cell-vesicle binding, flow cytometry; at 15.4 µM; hits give low values;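 further: ratio of mean FL2 vesicle stain of CD8+ cells to that row's control; lower values mean blocking of vesicle binding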
Screen size: about 1,200 compounds; about 65 (5%) were called active. Many of the other results were omitted from the sample, so actives are more common in it than they were.
// returns FALSE unless percent response (vesicle binding) is strictly below 300%, in which case TRUE

Compound: CC(C)(C)NC(=O)CON=C1c2ccccc2-c2ccccc21
Answer label: FALSE
--
Compound: S=c1sc2c(N3CCOCC3)ncnc2n1-c1ccccc1
Answer label: TRUE
--
Compound: Cc1ccc(N(CC(O)CN2CCCC2)S(=O)(=O)c2ccc(C)cc2)cc1 (centres undefined)
Answer label: TRUE
--
Compound: Cc1cc(C)c(C(=O)N2CCCC(N3CCN(c4ccc(F)cc4)CC3)C2)o1 (centres undefined)
Answer label: TRUE

## Task Problem: For the compound C/C(=N\NC(=O)Cn1cc([N+](=O)[O-])cn1)c1ccco1 , is percent response (vesicle binding) under 300%?
## Result TRUE

## Task Problem: For the compound O=C(c1ccccc1Cl)N1CCCC(c2nc3c(nnn3Cc3ccccc3)c(=O)[nH]2)C1 (centres undefined) , is percent response (vesicle binding) under 300%?
## Result TRUE

## Task Problem: For the compound C=CCNC(=O)c1c(Cl)nc(C)c([N+](=O)[O-])c1C , is percent response (vesicle binding) under 300%?
## Result TRUE

## Task Problem: For the compound O=C(COc1ccccc1)NNC(=O)c1ccc(Cl)cc1 , is percent response (vesicle binding) under 300%?
## Result TRUE

## Task Problem: For the compound CCOc1ccccc1NC(=O)c1ccc(F)c(S(=O)(=O)N2CCC3(CC2)OCCO3)c1 , is percent response (vesicle binding) under 300%?
## Result TRUE

## Task Problem: For the compound CC(C)(C)NC(=O)COc1ccc(CNCc2cccnc2)cc1 , is percent response (vesicle binding) under 300%?
## Result FALSE

## Task Problem: For the compound O=C(Nc1ccccc1C(=O)OCC(=O)c1c[nH]c2ccccc12)c1ccco1 , is percent response (vesicle binding) under 300%?
## Result TRUE

## Task Problem: For the compound COc1ccc(Cc2nc(-c3ccccn3)no2)cc1 , is percent response (vesicle binding) under 300%?
## Result FALSE

## Task Problem: For the compound Cc1ccc(NC(=O)C2c3ccccc3Oc3ccccc32)c(C)c1 , is percent response (vesicle binding) under 300%?
## Result TRUE
